Entry source: ChEMBL document CHEMBL1201862

- System: UACC-257
- experiment_summary: NCI tumour cell line growth inhibition, 48 h
Active and inactive are the calls of the source. Cut-off read from the data, not from the text of the source: active = GI50 up to about 1.1 µM and inactive = higher.
A correct response names exactly one class from y = active, n = inactive

[Q] Write down the call the test reported for this compound. Item: C/C(=N\Nc1nc2ccccc2[nH]1)c1cc2ccccc2cn1
[A] y

[Q] Hi, sorry to bother you, what did the test record for N#C/C(C(=O)Nc1ccc(Cl)cc1)=C(/N)N1CCOCC1 ?
[A] n

---

- System: SK-MEL-28
- experiment_summary: NCI tumour cell line growth inhibition, 48 h
Activity calls are given as the source filed them. Rule as the data show it: active = GI50 up to about 1.1 µM and inactive = higher.
The categories you may choose from are active, inactive

Use these answered entries as a reference point.
>  <compound>
COc1ccc2c3c1O[C@H]1C(O)CCC4(O)[C@@H](C2)NCC[C@]314 (stereo not given in full)

>  <label_class>
inactive

$$$$
>  <compound>
CC(C)(C)c1ccc(O)c(C[N+](C)(C)C)c1

>  <label_class>
inactive

$$$$
>  <compound>
CCOC(=O)c1csc(-c2nc(CCNC(=O)c3ccccc3)sc2Cl)n1

>  <label_class>
inactive

$$$$
>  <compound>
Oc1ccc(CCc2cc(O)cc(O)c2)cc1 [DIHYDRORESVERATROL]

>  <label_class>
inactive

$$$$
>  <compound>
CCNCCCNc1c2ccccc2nc2ccccc12

>  <label_class>
active

$$$$

[Q] Entry O=C(Nc1ccccc1C(=O)NCc1ccccc1)/C(=C/c1ccccc1)NC(=O)c1ccccc1 : call = ?
[A] inactive

[Q] Query: recorded result category for COc1cc(C2c3cc4c(cc3OC(NCCO)C2C)OCO4)cc(OC)c1OC (stereo not given) in this test
[A] active

[Q] Assay result, entry COC(=O)C(=O)C(CC(=O)Nc1cc(Cl)ccc1Cl)C(=O)OC (stereo not given) — outcome?
[A] inactive

[Q] Record lookup: outcome of this test for CC(C)(C)c1ccc(CN2CCN(C(c3ccccc3)c3ccc(Cl)cc3)CC2)cc1 (stereo not given) ?
[A] inactive

[Q] Tell me the assay call for COc1cc(C(=O)OC2CC34CCNC35CC(OC5(OC)C2O)c2cc3c(cc24)OCO3)ccc1O (stereo not given) please.
[A] inactive
